System: ACHN renal
test: NCI tumour cell line growth inhibition, 48 h
Reported TGI values are given for each entry in this list.

molecule="CCCCCCCCC/C=C1/CC(CO)(COC(=O)C2CCCCC2)OC1=O (stereo not drawn)" reported_measurement="> 100 µM"
molecule=[N-]=[N+]=NCCCn1c2c(c3ccccc3c1=O)C(=O)c1cc3c(cc1-2)OCO3 reported_measurement="> 100 µM"
molecule=COc1cccc2c1CCc1sc(CN3CCN(C)CC3)nc1-2 reported_measurement="> 100 µM"
molecule=O=C(NC1CCCCC1)N1CCNC1=S reported_measurement="> 100 µM"
molecule=O=[N+]([O-])c1cc(-c2ccc([As](=O)(O)O)cc2)ccc1[As](=O)(O)O reported_measurement="> 100 µM"

Report value: TGI, system: ACHN renal, molecule: `Cn1c(SCc2ccc([N+](=O)[O-])cc2)nnc1C12CC3CC(CC(C3)C1)C2`
> 10 µM

Report value: TGI, system: ACHN renal, molecule: `c1ccc2c(c1)CCCc1nnc3nc4ccccc4n3c1-2`
> 100 µM

Report value: TGI, system: ACHN renal, molecule: CCOP(=O)(OCC)C(Cc1cn(S(=O)(=O)c2ccc(C)cc2)cn1)C(=O)O (stereo not drawn)
> 100 µM

These entries and their values trace back to PubChem BioAssay (NCI).
